# TARGET_OR_SYSTEM: EGFR (Human), P00533 [T790M/L858R]
# Sequence (P00533 whole entry T790M/L858R, looked up): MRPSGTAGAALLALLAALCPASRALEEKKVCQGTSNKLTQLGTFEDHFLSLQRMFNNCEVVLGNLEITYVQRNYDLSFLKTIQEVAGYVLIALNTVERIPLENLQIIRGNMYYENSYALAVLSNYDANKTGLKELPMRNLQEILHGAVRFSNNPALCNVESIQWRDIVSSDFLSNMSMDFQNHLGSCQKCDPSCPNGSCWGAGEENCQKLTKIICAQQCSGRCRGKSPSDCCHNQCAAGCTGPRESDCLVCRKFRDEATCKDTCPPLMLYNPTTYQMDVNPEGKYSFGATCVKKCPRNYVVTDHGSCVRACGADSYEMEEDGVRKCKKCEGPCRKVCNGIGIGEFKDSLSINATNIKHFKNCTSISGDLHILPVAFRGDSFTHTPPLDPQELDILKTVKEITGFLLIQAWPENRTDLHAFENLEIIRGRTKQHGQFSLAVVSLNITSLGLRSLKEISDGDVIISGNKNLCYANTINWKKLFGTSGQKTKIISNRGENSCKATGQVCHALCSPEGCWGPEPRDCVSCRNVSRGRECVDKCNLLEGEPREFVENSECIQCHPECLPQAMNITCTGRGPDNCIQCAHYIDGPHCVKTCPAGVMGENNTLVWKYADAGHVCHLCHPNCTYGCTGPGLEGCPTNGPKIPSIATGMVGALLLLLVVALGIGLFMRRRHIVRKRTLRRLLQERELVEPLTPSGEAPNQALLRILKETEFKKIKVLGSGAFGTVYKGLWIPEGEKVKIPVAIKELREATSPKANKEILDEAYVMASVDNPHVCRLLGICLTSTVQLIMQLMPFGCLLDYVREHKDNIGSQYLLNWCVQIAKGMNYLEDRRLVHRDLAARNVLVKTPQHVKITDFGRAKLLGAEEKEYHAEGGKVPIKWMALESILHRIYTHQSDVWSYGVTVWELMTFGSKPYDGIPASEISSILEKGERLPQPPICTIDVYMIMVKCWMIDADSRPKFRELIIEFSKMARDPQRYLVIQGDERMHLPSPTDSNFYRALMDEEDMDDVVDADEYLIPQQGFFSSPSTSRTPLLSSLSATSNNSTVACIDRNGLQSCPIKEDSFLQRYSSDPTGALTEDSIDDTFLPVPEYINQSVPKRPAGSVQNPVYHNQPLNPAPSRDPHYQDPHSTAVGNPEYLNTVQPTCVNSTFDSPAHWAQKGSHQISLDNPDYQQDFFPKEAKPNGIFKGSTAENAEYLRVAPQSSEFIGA
# TEST_CONTEXT: h1975
RESULT_TYPE: IC50

[
  {
    "MOL": "C=CC(=O)NCCN1C(=O)N(Cc2ccccc2)Cc2cnc(Nc3ccc(N4CCN(C)CC4)cc3OC)nc21",
    "TARGET_OR_SYSTEM": "EGFR (Human), P00533 [T790M/L858R]",
    "RESULT_TYPE": "IC50",
    "MEASUREMENT": "> 10 µM"
  }
]

---

# TARGET_OR_SYSTEM: CDK2 (human) (UniProt P24941)
# ASSAY_PROTOCOL: Enzyme Assay
pIC50: −log10 of the molar value.
List of pIC50 values.

[
  {
    "MOL": "O=C1/C(=C2\\Nc3ccccc3C2=O)Nc2ccccc21",
    "VALUE_OPERATOR": "<",
    "pIC50": 3.00
  },
  {
    "MOL": "O=C1Nc2ccc(Cl)cc2/C1=C1/Nc2ccccc2C1=O",
    "VALUE_OPERATOR": "=",
    "pIC50": 6.26
  },
  {
    "MOL": "O=C1Nc2ccccc2/C1=C1/Nc2ccccc2C1=O",
    "VALUE_OPERATOR": "=",
    "pIC50": 5.12
  }
]

Origin of values: the Kinase Knowledgebase extract (Sharma et al. 2016)
